- Test system: CCRF-CEM
- experimentalProtocol: Antiproliferative activity against human CEM cells after 48 hrs by Coulter counting analysis
- Format: cell-based
pIC50: −log10 of the molar value.
recordedEndpoint: pIC50

# smilesRepr, pIC50
records = [
    ("COc1cccc(C(=O)/C=C/c2ccc(N)cc2)c1", 4.59),
]

[P] C=C(Br)C(=O)Nc1ccc(/C=C/C(=O)c2ccc(C)cc2)cc1
[Q] Nc1ccc(/C=C/C(=O)c2ccc(Cl)cc2)cc1
In: Hi team, can someone confirm which has the larger pIC50: P or Q ? Thanks. Answer with the label corresponding to your selection.
Out: P

###

- Test system: HeLa
- experimentalProtocol: Antiproliferative activity against human HeLa cells after 48 hrs by Coulter counting analysis
- Type: functional, cell-based
recordedEndpoint: IC50 (µM)

# smilesRepr, IC50 [µM]
records = [
    ("C=C(Br)C(=O)Nc1ccc(/C=C/C(=O)c2ccc(I)cc2)cc1", 7.7),
    ("C=C(Br)C(=O)Nc1ccc(C(=O)/C=C/c2cc(OC)cc(OC)c2)cc1", 1.7),
    ("C=C(Br)C(=O)Nc1ccc(C(=O)/C=C/c2ccc(OC)cc2)cc1", 0.31),
    ("Nc1ccc(/C=C/C(=O)c2ccc(Cl)cc2)cc1", 43),
    ("C=C(Br)C(=O)Nc1ccc(/C=C/C(=O)c2ccc(Cl)c(Cl)c2)cc1", 3.2),
    ("C=C(Br)C(=O)Nc1ccc(/C=C/C(=O)c2ccc(OC)cc2)cc1", 1.4),
    ("Cc1ccc(C(=O)/C=C/c2ccc(N)cc2)cc1", 40),
    ("C=C(Br)C(=O)Nc1ccc(C(=O)/C=C/c2ccc(OC)cc2OC)cc1", 1.1),
]

[a] COc1ccc(/C=C/C(=O)c2ccc(N)cc2)cc1OC
[b] COc1cccc(C(=O)/C=C/c2ccc(N)cc2)c1
In: Hi team, can someone confirm which has the larger IC50: a or b ? Thanks. Answer with the label corresponding to your selection.
Out: b
(b: 33 µM, a: 7.8 µM)

###

- Test system: MOLT-4
- experimentalProtocol: Antiproliferative activity against human MOLT4 cells after 48 hrs by Coulter counting analysis
- Format: functional, cell-based
- conditionParameters: MOLT-4, 48 h
pIC50: −log10 of the molar value.
recordedEndpoint: pIC50

These solved cases illustrate the format of a correct answer.
# smilesRepr, studyTarget, pIC50
records = [
    ("C=C(Br)C(=O)Nc1ccc(C(=O)/C=C/c2ccc(OC)c(OC)c2OC)cc1", "MOLT-4", 6.17),
    ("C=C(Br)C(=O)Nc1ccc(/C=C/C(=O)c2cc(OC)c(OC)c(OC)c2)cc1", "MOLT-4", 6.07),
]

[a] C=C(Br)C(=O)Nc1ccc(/C=C/C(=O)c2ccc(F)cc2)cc1
[b] C=C(Br)C(=O)Nc1ccc(C(=O)/C=C/c2cccc(OC)c2)cc1
In: In terms of reported pIC50, does a or b have the smaller number? Answer with the label corresponding to your selection.
Out: b
(b: 5.96, a: 6.18)

###

- Tested on: MOLT-4
- experimentalProtocol: Antiproliferative activity against human MOLT4 cells after 48 hrs by Coulter counting analysis
- Assay type: functional, cell-based
- conditionParameters: MOLT-4, 48 h
recordedEndpoint: IC50 (nM)

# smilesRepr, unitString, IC50
data = [
    ("C=C(Br)C(=O)Nc1ccc(C(=O)/C=C/c2cc(OC)cc(OC)c2)cc1", "nM", 1500),
]

[P] Nc1ccc(/C=C/C(=O)c2ccc(Cl)c(Cl)c2)cc1
[Q] C=C(Br)C(=O)Nc1ccc(/C=C/C(=O)c2cccc3ccccc23)cc1
[R] COc1ccc(/C=C/C(=O)c2ccc(N)cc2)cc1OC
[S] COc1cccc(/C=C/C(=O)c2ccc(N)cc2)c1
In: # sort list by recorded IC50, greatest to least Ranked list of labels, please, in the requested order.
Out: S, P, R, Q

[P] Nc1ccc(/C=C/C(=O)c2cccc3ccccc23)cc1
[Q] C=C(Br)C(=O)Nc1ccc(/C=C/C(=O)c2ccc(OC)cc2)cc1
[R] COc1cc(/C=C/C(=O)c2ccc(N)cc2)cc(OC)c1
In: # sort list by recorded IC50, greatest to least Ranked list of labels, please, in the requested order.
Out: P, R, Q
(P: 12000 nM, R: 7500 nM, Q: 1300 nM)

Just for reference, ChEMBL document CHEMBL1153932 is where these values come from.
